Each recorded value in this set is attributed to ChEMBL document CHEMBL1961873.

Entries and their inhibition values follow.
# targetUnderTest: Tyrosine-protein kinase JAK3 (Homo sapiens);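 also: values reported are mean percent inhibition of JAK3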
# experimentalSetup: at 0.1 µM
readoutKind: inhibition (%)

{"smilesRecord": "Cc1cccc2c1NC(=O)/C2=N\\Nc1ccc(S(N)(=O)=O)cc1", "reportedMeasurement": 0}
{"smilesRecord": "NS(=O)(=O)c1ccc(N/N=C2\\C(=O)Nc3ccc4ncccc4c32)cc1", "reportedMeasurement": 14.2}
{"smilesRecord": "Fc1ccc(-c2nn3ncccc3c2-c2ccnc(Nc3ccc4c(c3)OCCO4)n2)cc1", "reportedMeasurement": -0.15}
{"smilesRecord": "CN1CCC(n2cnc(-c3ccc(F)cc3)c2-c2ccnc(N)n2)CC1", "reportedMeasurement": -0.36}
{"smilesRecord": "CNC(=O)c1cccc(C#Cc2cncnc2Nc2ccc(OCc3cccc(F)c3)c(Cl)c2)c1", "reportedMeasurement": -1.04}
{"smilesRecord": "Cc1ccc(O)cc1Nc1ccnc2cc(-c3ccccn3)ccc12", "reportedMeasurement": -1.06}
{"smilesRecord": "Fc1ccc(-c2nn3ccccc3c2-c2ccncc2)cc1", "reportedMeasurement": -0.48}
{"smilesRecord": "CC(=O)Nc1cccc(C#Cc2cncnc2Nc2ccc(OCc3cccc(F)c3)c(Cl)c2)c1", "reportedMeasurement": 0.59}
{"smilesRecord": "COc1cccc(-n2ncc3c(N/N=C/c4ccc(F)cc4)ncnc32)c1", "reportedMeasurement": -1.52}
{"smilesRecord": "N#Cc1c(NC(=O)c2ccc(F)cc2)sc2c1CCCC2", "reportedMeasurement": 0.53}
{"smilesRecord": "CC(C)COC(=O)c1ccc2c(c1)/C(=C/Nc1ccc(S(N)(=O)=O)cc1)C(=O)N2", "reportedMeasurement": 2.41}
